- TARGET OF ASSAY: hAT1R (Homo sapiens, UniProt P30556)
- Sequence (P30556 whole entry): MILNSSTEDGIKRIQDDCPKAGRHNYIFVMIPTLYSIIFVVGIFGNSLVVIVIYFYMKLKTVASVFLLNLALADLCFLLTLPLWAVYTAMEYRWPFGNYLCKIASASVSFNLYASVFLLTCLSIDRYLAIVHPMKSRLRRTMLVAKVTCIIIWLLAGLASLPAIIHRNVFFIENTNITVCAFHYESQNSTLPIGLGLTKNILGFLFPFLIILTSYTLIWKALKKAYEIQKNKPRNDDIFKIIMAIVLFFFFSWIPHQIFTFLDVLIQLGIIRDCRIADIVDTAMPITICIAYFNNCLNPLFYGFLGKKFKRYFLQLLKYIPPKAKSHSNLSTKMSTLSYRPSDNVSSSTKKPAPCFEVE
- ASSAY REMARKS: BRET Gq biosensor assay, agonist response, HEK293 cells
- Assay type: cell-based
- STATED CONDITIONS: section of the 42nd table directly before the BRET P63 section
Entries and their EC50 values follow.
The figure you give is taken to be in nM; do not add the unit.

Recorded EC50, per entry:
>>> result("CCCCC(=O)N(Cc1ccc(-c2cc(-c3ccccc3)ccc2-c2nn[nH]n2)cc1)[C@]1(C(=O)O)CC[C@@H](C)CC1")
1210
>>> result("CCCCC1=NC2(CCCC2)C(=O)N1Cc1ccc(-c2cc(Oc3cc(C)ccn3)ccc2-c2nn[nH]n2)cc1")
93.8

Inquiry: Which measured EC50 belongs to CCOc1nc2cccc(C(=O)O)c2n1Cc1ccc(-c2cc(Oc3cccnc3)ccc2-c2nn[nH]n2)cc1 , tested on hAT1R (Homo sapiens, UniProt P30556)?
Reply text: 17.8

Inquiry: Next molecule: CCOc1nc2cccc(C(=O)O)c2n1Cc1ccc(-c2cc(Oc3ccc(F)cc3)ccc2-c2nn[nH]n2)cc1
Reply text: 47.2
